The values you see were collected from paper PMC5457524.

tested.system: T1, SNAP-Fbs1 fusion protein (wild-type human Fbs1 sugar-binding domain, residues 92-296) (human, UniProt Q9UK22 92-296)
T1 construct: Immobilised covalently through the SNAP tag on benzylguanine (BG) agarose beads in the bead assays; also called wt Fbs1; Fbs1 beads; source: NEB Express E. coli, purified (for Fbs1 beads and ITC); E. coli cell lysate (fetuin or RNase B bead pulldown); not shown: SNAP tag, N-terminal, kept
T1 sequence (looked up): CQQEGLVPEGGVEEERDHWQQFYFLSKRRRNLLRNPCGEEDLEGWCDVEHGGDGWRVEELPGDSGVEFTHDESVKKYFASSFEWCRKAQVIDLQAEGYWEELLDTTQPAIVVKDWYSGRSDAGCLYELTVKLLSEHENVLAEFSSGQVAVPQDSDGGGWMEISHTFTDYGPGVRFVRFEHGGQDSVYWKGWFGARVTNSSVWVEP
run.description: ITC; 270 μM SGP injected into 27 μM SNAP-Fbs1; 20 mM Tris.HCl pH 7.5, 1 mM EDTA, 50 mM NaCl (low salt); single site binding model
condition.set: both partners purified
No end group written: not given here.
attribute.measured: Kd
Report the figure along with its unit, number first.

Which Kd is listed for KVAN(bi‑antennary complex N‑glycan, terminal sialic acids)KT (naturally occurring glycopeptide of six amino acids; source: bought: Fushimi Pharmaceutical Co., Ltd) [sialylglycopeptide (SGP)] ?
3000 nM
